- Tested on: 786-0 renal
- measurement.description: NCI tumour cell line growth inhibition, 48 h

compound: C/C(=N\NC(N)=S)c1ccc(/C(C)=N/NC(N)=S)cc1
TGI: > 100 µM
//
compound: N[C@@H]1C[C@H](N)c2c(Cl)sc(Cl)c21
TGI: > 100 µM
//
compound: CC(=O)OC1[C@H]2c3cc4c(cc3CN3CCC(C[C@@H]1OC(C)=O)C23)OCO4 (stereo partly specified)
TGI: > 75 µM
//
compound: Cc1cccc(C(C)O)n1 (stereo unspecified)
TGI: > 100 µM
//
compound: Oc1ccccc1C=Nc1ccc(Oc2ccc(Cl)cc2)c(Cl)c1
TGI: 98.7 µM
//
compound: CCCCCCC(N)(CCCCCC)C(=O)Nn1c(C)ccc1C
TGI: > 100 µM
//
compound: CCOC(=O)[C@H]1C[C@@H](C(=O)c2ccccc2)N2N=C(c3ccc(Br)cc3)C=C[C@H]12
TGI: > 100 µM
//
compound: OCCN(CO)CN(CN(CO)CCO)c1nc(N(CN(CO)CCO)CN(CO)CCO)nc(N(CN(CO)CCO)CN(CO)CCO)n1
TGI: 4.6 ng/mL
//
compound: CSc1nc(C)cc(Nc2ccc(O)c(CN3CCCCC3)c2)n1
TGI: 49.1 µM
//
compound: Nc1nc(-n2cccn2)nc(-n2cccn2)c1Br
TGI: > 100 µM
//
compound: CCOC(=O)CNC(=O)C(CSC(=O)N(O)c1ccc(Br)cc1)NC(=O)CCC(N)C(=O)OCC (stereo unspecified)
TGI: > 50 µM
//
compound: CCOC(=O)/C(C#N)=C(O)/C(=C/c1ccccc1Cl)NC(=O)c1ccccc1
TGI: > 100 µM
//
compound: CCN(CC)CCCCC1CCN(CC(=O)N2c3ccccc3NC(=O)c3ccccc32)CC1
TGI: > 100 µM
//
compound: COC(=O)C1=CN(CC2=CC(=O)C(C)=CC2=O)C=C(C(=O)OC)C1c1cccc(OC)c1OC
TGI: 25.3 µM
//
compound: COc1ccc(NC(=O)C2=C(SC)C(C#N)C(=O)N=C2N)cc1 (stereo unspecified)
TGI: > 100 µM
//
compound: COc1ccc(C2=NNC(c3ccc(-c4ccc(OC)cc4[N+](=O)[O-])o3)C2)cc1 (stereo unspecified)
TGI: > 100 µM

---

Measured TGI of individual entries
- System: OVCAR-8 ovarian
- measurement.description: NCI tumour cell line growth inhibition, 48 h
parameter.measured: TGI

compound: Cc1ccc2c(c1)C(C1Cc3c(C)cccc3C1=O)OC2=O (stereo not drawn)
parameter.measured: TGI
result: > 100 µM
--
compound: COc1ccccc1NC(=O)CC(=O)n1nc(C)c(N=Nc2ccccc2F)c1C
parameter.measured: TGI
result: > 100 µM
--
compound: CCCCCCN1C(=O)/C(=c2\sc3n(c2=O)C2C(NN=3)N(CC)C(=O)N2CC)c2ccccc21 (stereo not drawn)
parameter.measured: TGI
result: > 50 µM

---

- Test system: T-47D breast
- measurement.description: NCI tumour cell line growth inhibition, 48 h
Measured TGI of individual entries

compound: COc1c(O)cc(/C=C/c2cc(O)cc3c2[C@@]2(C(=O)O3)c3c(O)cc(O)cc3OC2c2cccc(O)c2)cc1O (stereo partly drawn)
TGI: > 100 µM
//
compound: O=C(CNC(=O)c1cccc2ccccc12)Nc1ccccc1Oc1cccc(O)c1
TGI: > 25 µM
//
compound: CCCCCCn1c(-c2ccc(C(=O)O/N=C(\N)c3ccc(OC)cc3)cc2)nc(-c2ccccc2)c1-c1ccccc1
TGI: 4.89 µM
//
compound: C/C(C=O)=N\Nc1cc(C)c2ccccc2n1
TGI: 39.9 µM
//
compound: Cn1cnc2c(F)c(Nc3ccc(Br)cc3Cl)c(C(=O)NOCCO)cc21
TGI: > 100 µM
//
compound: CCOc1ccc(C2c3[nH]c4ccccc4c3CCN2C(=O)c2cccs2)cc1 (stereo not drawn)
TGI: > 100 µM
//
compound: OCCNc1nc(NCCO)nc(Nc2ccc(C3=NN(c4cc(Cl)cc(Cl)c4)C(c4ccc(Cl)cc4)C3)cc2)n1 (stereo not drawn)
TGI: 3.88 µM
//
compound: COc1cc(C2c3cccc4cccc(c34)C3CCC(=O)N32)cc(O)c1O (stereo not drawn)
TGI: > 50 µM
//
compound: COc1ccc(NC2=C(Sc3nc(C)cc(C)n3)C(=O)N(Cc3ccccc3)C2=O)cc1Cl
TGI: > 160 µM
//
compound: COc1cc(C)cc2c1OC(c1ccccc1)CC2=O (stereo not drawn)
TGI: > 100 µM
//
compound: Cc1cccc2c3c(sc12)C(c1ccc(Cl)cc1)C(C#N)=C(/N=C/c1ccc(Cl)cc1)O3 (stereo not drawn)
TGI: > 100 µM
//
compound: CCN(CC)CCC(=O)Nc1cccc2c1C(=O)c1c(c(O)c3ccccc3c1O)C2=O
TGI: > 100 µM
//
compound: Cc1c(CCN=P(c2ccccc2)(c2ccccc2)c2ccccc2)c(=O)n2c([nH]c3ccccc32)c1C#N
TGI: > 10 µM

---

- Tested on: UACC-257 melanoma
- measurement.description: NCI tumour cell line growth inhibition, 48 h
parameter.measured: TGI

compound: OCCN(CO)CN(CN(CO)CCO)c1nc(N(CN(CO)CCO)CN(CO)CCO)nc(N(CN(CO)CCO)CN(CO)CCO)n1
test.target: UACC-257 melanoma
result: 3.21 ng/mL

compound: COC(=O)c1c/c(=N\NC(=O)CC(=O)Nc2ccccc2Cl)c2ccccc2o1
test.target: UACC-257 melanoma
result: > 100 µM

compound: O=c1cc(-c2ccc(O)c(O)c2)oc2cc(OC3OC(CO)C(O)C(O)C3O)cc(O)c12 (stereo not given)
test.target: UACC-257 melanoma
result: > 100 µM

compound: COC(=O)/C=C/c1cc(OC)c2c(c1)C(C(=O)OC)C(c1ccc(OC)c(OC)c1)O2 (stereo not given)
test.target: UACC-257 melanoma
result: > 100 µM

compound: Cc1ccc2c(ccc3c[n+]4ccccc4c(C)c32)c1
test.target: UACC-257 melanoma
result: 5.59 µM

compound: CCN(CC)CCC(=O)Nc1cccc2c1C(=O)c1c(c(O)c3ccccc3c1O)C2=O
test.target: UACC-257 melanoma
result: > 100 µM

compound: COc1ccc2[nH]c3c(cnn4cnnc34)c2c1
test.target: UACC-257 melanoma
result: > 100 µM

compound: O=C(O)C(/C=C/c1ccco1)=N\Nc1nc(-c2ccc(Cl)cc2)cs1
test.target: UACC-257 melanoma
result: > 50 µM

compound: N[C@@H]1C[C@H](N)c2c(Cl)sc(Cl)c21
test.target: UACC-257 melanoma
result: > 100 µM

compound: O=C(/C=C/c1ccc(O)c(O)c1)NC(CO)C(=O)O (stereo not given)
test.target: UACC-257 melanoma
result: > 100 µM

compound: COc1ccc2c(c1)[nH]c(=O)c1c3cccnc3cn21
test.target: UACC-257 melanoma
result: 25.5 µM

compound: CC(=O)Nc1c(C)cc(OCC(=O)O)cc1C
test.target: UACC-257 melanoma
result: > 100 µM

compound: O=c1nc2n(CCO)c(-c3ccccc3)c(-c3ccccc3)nc-2c(=O)[nH]1
test.target: UACC-257 melanoma
result: > 100 µM

compound: COc1n[n+]([O-])c(C)cc1[N+](=O)[O-]
test.target: UACC-257 melanoma
result: 24.4 µM

compound: O=C(Cc1ccccc1)N/N=C(/CCN1CCCC1)CC(c1ccccc1)c1c(O)c2ccccc2oc1=O (stereo not given)
test.target: UACC-257 melanoma
result: > 100 µM

compound: C/C(=N\NC(N)=S)c1ccc2c(c1)OCO2
test.target: UACC-257 melanoma
result: > 100 µM

compound: Cc1c(CCN=P(c2ccccc2)(c2ccccc2)c2ccccc2)c(=O)n2c([nH]c3ccccc32)c1C#N
test.target: UACC-257 melanoma
result: > 10 µM

compound: N#CCCc1nc2ccc(Br)cc2c(=O)n1-c1ccc(O)c([N+](=O)[O-])c1
test.target: UACC-257 melanoma
result: 74.3 µM

compound: COc1ncnc2c(NC3OC(CO)C(O)C3O)ncnc12 (stereo not given)
test.target: UACC-257 melanoma
result: > 100 µM

compound: C#Cc1cccc(NC(=O)Nc2ccc(NC(=O)CCl)cc2)c1
test.target: UACC-257 melanoma
result: > 82.5 µM

compound: Cc1[nH]c2ncn(/N=C/c3ccccc3)c(=N)c2c1Cc1ccccc1
test.target: UACC-257 melanoma
result: > 100 µM

compound: N#Cc1cnn2c1n[n+]([O-])c1ccc(Cl)cc12
test.target: UACC-257 melanoma
result: 23 µM

compound: CC(=NNC(=S)Nc1ccccc1C)c1cccc(C(C)=NNC(=S)Nc2ccccc2C)n1
test.target: UACC-257 melanoma
result: > 100 µM

compound: C=C1C(=O)O[C@H]2[C@H]1CC/C(COC(=O)NCCc1ccc(OC)cc1)=C\CC[C@@]1(C)O[C@@H]21
test.target: UACC-257 melanoma
result: 6.85 µM

compound: COc1cc2c(cc1OCCCCCOc1cc(-c3ccc(F)cc3)nc(C)n1)N=C[C@@H]1CCCN1C2=O
test.target: UACC-257 melanoma
result: > 100 µM
